test system: Candida albicans; experiment: Antimicrobial activity against Candida albicans by EUCAST broth microdilution method; assay type: functional
Recorded MIC50, one value per entry.
Assay Endpoint: MIC50 (µg/mL)

- Compound: "Clc1ccc(C(Cn2ccnc2)OCc2ccc(Sc3ccccc3)cc2)c(Cl)c1 (centres undefined)"
  Result Number: 0.03
- Compound: "CC(=O)N1CCN(c2ccc(OCC3COC(Cn4ccnc4)(c4ccc(Cl)cc4Cl)O3)cc2)CC1 (centres undefined)"
  Result Number: 0.12
- Compound: "OC(Cn1cncn1)(Cn1cncn1)c1ccc(F)cc1F"
  Result Number: 0.12
- Compound: "CCC(C)n1ncn(-c2ccc(N3CCN(c4ccc(OCC5COC(Cn6cncn6)(c6ccc(Cl)cc6Cl)O5)cc4)CC3)cc2)c1=O (centres undefined)"
  Result Number: 0.03

---

tested on: Nakaseomyces glabratus; assay: Antimicrobial activity against Candida glabrata by CLSI M27-A2 broth microdilution method; assay type: functional

- Molecule: "CCC(C)n1ncn(-c2ccc(N3CCN(c4ccc(OCC5COC(Cn6cncn6)(c6ccc(Cl)cc6Cl)O5)cc4)CC3)cc2)c1=O (centres undefined) [ITRACONAZOLE]"
  MIC50, µg/mL: 0.03
- Molecule: "CC(=O)N1CCN(c2ccc(OCC3COC(Cn4ccnc4)(c4ccc(Cl)cc4Cl)O3)cc2)CC1 (centres undefined) [KETOCONAZOLE]"
  MIC50, µg/mL: 0.5
- Molecule: "OC(Cn1cncn1)(Cn1cncn1)c1ccc(F)cc1F [FLUCONAZOLE]"
  MIC50, µg/mL: 2
- Molecule: "Clc1ccc(C(Cn2ccnc2)OCc2ccc(Sc3ccccc3)cc2)c(Cl)c1 (centres undefined) [FENTICONAZOLE]"
  MIC50, µg/mL: 0.03

---

system: Candida parapsilosis; assay: Antimicrobial activity against Candida parapsilosis ATCC 22019 by CLSI M27-A2 broth microdilution method; format: functional; details: Lodderomyces parapsilosis
Assay Endpoint: MIC50 (µg/mL)

- Compound: "Clc1ccc(C(Cn2ccnc2)OCc2ccc(Sc3ccccc3)cc2)c(Cl)c1 (centres undefined)"
  Target Under Test: "Candida parapsilosis"
  Result Number: 0.03
- Compound: "CC(=O)N1CCN(c2ccc(OCC3COC(Cn4ccnc4)(c4ccc(Cl)cc4Cl)O3)cc2)CC1 (centres undefined)"
  Target Under Test: "Candida parapsilosis"
  Result Number: 0.12
- Compound: "OC(Cn1cncn1)(Cn1cncn1)c1ccc(F)cc1F"
  Target Under Test: "Candida parapsilosis"
  Result Number: 2
- Compound: "CCC(C)n1ncn(-c2ccc(N3CCN(c4ccc(OCC5COC(Cn6cncn6)(c6ccc(Cl)cc6Cl)O5)cc4)CC3)cc2)c1=O (centres undefined)"
  Target Under Test: "Candida parapsilosis"
  Result Number: 0.06
